# System: Wolbachia pipientis
# Experimental protocol: Anti-Wolbachia Cell-Based Screen
# Type: functional
# Design: scale not given: in the data most compounds retested in dose-response had high values
# Stated conditions: 5 µM
The campaign covered roughly 48,000 compounds. About 13,000 (27%) showed an effect of 50% or more. Some of the results follow.
Measured property: Percent Effect (%)
Numbers only here, please. The scale is %.

Cc1nc2c(c(NCCNC(=O)C(C)C)n1)Cc1ccccc1OC2 ... 89.1

Using the record for CCCN(CCC)C(=O)c1cc(CN2CCC(O)CC2)on1 , report its Percent Effect.
-23.18

Try this compound next: CC(C)C(=O)N1CCN(S(C)(=O)=O)CC2(CC(=O)N(C)C2)C1 (stereo not drawn)
4.406

Try this compound next: COc1ccc2c(c1)C(NCCc1c(C)noc1C)CCCO2 (stereo not drawn)
-2.374

* * *

compounds and their reported Percent Effect
# Test system: Wolbachia pipientis
# Experimental protocol: Anti-Wolbachia Cell-Based Screen
# Format: functional
# Design: scale not given: in the data most compounds retested in dose-response had high values
# Stated conditions: 5 µM
The campaign covered roughly 48,000 compounds. About 13,000 (27%) showed an effect of 50% or more. This is one part of the list.
Numbers only here, please. The scale is %.

O=S(=O)(CCN1CCCCC1Cn1cncn1)c1ccccc1 (stereo not drawn) ... 104.1
O=C1CC[C@@H]2[C@@H](CCN2S(=O)(=O)C2CC2)N1CC1CC1 ... 105.6
COc1cc(-c2cccc3c2OC(CN)C3)ccc1O (stereo not drawn) ... 12.42
CC(SCCNS(=O)(=O)c1cnn(C)c1)c1cccc(F)c1 (stereo not drawn) ... 13.07
Cc1ccc(S(=O)(=O)N(C)Cc2nccs2)cc1N(C)C ... 7.403
CN(Cc1ccco1)C1CCC12CCN(C(=O)c1ccnnc1)CC2.O=C(O)C(F)(F)F (stereo not drawn) ... -20.01

Report Percent Effect for CNC(=O)CS(=O)(=O)C1CCN(S(=O)(=O)c2ccccc2Br)CC1 tested on Wolbachia pipientis.
9.932

Try this compound next: CC(=O)N1CCN(C(=O)C2SCCc3sccc32)CC1 (stereo not drawn)
-2.542

* * *

# System: Wolbachia pipientis
# Experimental protocol: Anti-Wolbachia Cell-Based Screen
# Format: functional
# Parameters: scale not given: in the data most compounds retested in dose-response had high values
# Stated conditions: 5 µM
Among all 48,000 compounds or so, about 13,000 (27%) showed an effect of 50% or more. Some of the results follow.
compounds and their reported Percent Effect
Numbers only here, please. The scale is %.

In the examples that follow, each entry is paired with its recorded Percent Effect.
CCS(=O)(=O)N1CCOC(CCCc2ccccc2)C1 (stereo not drawn) ... -15.33
CC(C)c1n[nH]c(C2CN(Cc3ncc[nH]3)CCO2)n1 (stereo not drawn) ... -3.355

Using the record for CC(C)Cc1cc(CNC(=O)c2cccc3c2OCC3)no1 , report its Percent Effect.
-12.78

Try this compound next: O=C(c1ncoc1C1CCCO1)N1CC2(CCCC2)c2ccccc21 (stereo not drawn)
-7.876

* * *

# Tested on: Wolbachia pipientis
# Experimental protocol: Anti-Wolbachia Cell-Based Screen
# Format: functional
# Design: scale not given: in the data most compounds retested in dose-response had high values
# Stated conditions: 5 µM
In all, about 48,000 compounds went through this assay and about 13,000 (27%) showed an effect of 50% or more. Some of the results follow.
Measured property: Percent Effect (%)
Numbers only here, please. The scale is %.

Using the record for CCc1nnc2ccc(NCC3(N4CCCCC4)CCOCC3)nn12 , report its Percent Effect.
-22.71

* * *

compounds and their reported Percent Effect
# Tested on: Wolbachia pipientis
# Experimental protocol: Anti-Wolbachia Cell-Based Screen
# Assay type: functional
# Design: scale not given: in the data most compounds retested in dose-response had high values
# Stated conditions: 5 µM
The whole screen tested about 48,000 compounds, of which about 13,000 (27%) showed an effect of 50% or more. This is one part of the list.
Numbers only here, please. The scale is %.

Cn1cc(C(=O)O)c(-c2ccc(F)cc2F)n1 ... -6.689
Cn1ccc(C(=O)NC2CCC23CCN(Cc2nccs2)CC3)c1 (stereo not given) ... 125.2
Cn1ccc(CN2CCC(c3ccccc3)CC2)cc1=O ... 1.288
CS(=O)(=O)N1CCC2(CN(C(=O)c3cccnc3)C2)C1.O=C(O)C(F)(F)F ... -8.829
O=C(NCC(O)c1cccc(F)c1)c1sccc1OC(F)F (stereo not given) ... 13.48

Using the record for CCc1nccn1CCC(=O)N1C[C@H]2CC[C@@H]1CN(C(=O)N(C)C)C2 , report its Percent Effect.
-6.839

Try this compound next: CC(C1CCN(Cc2cnn(C)c2C2CC2)CC1)N1CCN(C)CC1 (stereo not given)
-5.459

* * *

# Test system: Wolbachia pipientis
# Experimental protocol: Anti-Wolbachia Cell-Based Screen
# Format: functional
# Parameters: scale not given: in the data most compounds retested in dose-response had high values
# Stated conditions: 5 µM
About 13,000 (27%) of roughly 48,000 compounds showed an effect of 50% or more. The list shows a part of the results.
molecules and their reported Percent Effect
Numbers only here, please. The scale is %.

In the examples that follow, each entry is paired with its recorded Percent Effect.
CCC(NC(=O)c1ccco1)c1nc(C(F)(F)F)cs1 (centres undefined) ... -6.981
O=C1CCC(C(=O)NCCOc2ccccc2-c2ccccc2)CN1 (centres undefined) ... 30.95
COc1cccc(CNc2cnn(C)c(=O)c2Cl)c1 ... -15.43
Cc1noc(CN(C)C(=O)c2n[nH]c(N)c2-c2ccccc2)n1 ... 101.7
Cn1cc(C2=NOC(C(=O)NC3(c4cccc(F)c4)CCCC3)C2)cn1 (centres undefined) ... 105.1

Using the record for Cn1cc(C2=NOC(C(=O)NC3(c4ccccc4F)CCCC3)C2)cn1 (centres undefined) , report its Percent Effect.
111.1

Try this molecule next: CCOc1ncccc1CNc1cc(COC)ncn1
-5.284

Try this molecule next: O=C(c1cccc(-n2cccn2)c1)N1CCCOC(Cn2cccn2)C1 (centres undefined)
8.514

Try this molecule next: CSc1ccc(CN2C[C@@H]3CC[C@@](O)(c4ccc(C)cn4)[C@@H]3C2)cc1
135.2

Try this molecule next: O=C(CCCn1cncn1)NC1(c2ccccc2)CCC1
-7.229

Try this molecule next: Cc1cnc(C)c(N2CCC(c3nnc(CN(C)C)n3C3CC3)CC2)n1
5.849

Try this molecule next: Cc1noc(C)c1CN(C)C(=O)c1n[nH]c(N)c1-c1ccccc1
103.1

Try this molecule next: CN(C)c1ccc(CCCNC(=O)NCC(O)c2ccsc2)cc1 (centres undefined)
3.16

Try this molecule next: O=C(Cc1cccc(F)c1F)NC1COc2ccccc2C1=O (centres undefined)
2.844

Try this molecule next: Cc1noc([C@H]2COC[C@H]3CN(C(=O)Cc4ccc(F)cc4)C[C@H]32)n1
-6.311

Try this molecule next: CSCCNC(=O)c1cc(Br)cn1C(C)C
-6.324

Try this molecule next: Cc1cc(NC(=O)Cc2ccccc2O)c[nH]c1=O
7.885

Try this molecule next: CN(C)C(=O)CN1C[C@@H]2CC[C@H](C1)N(Cc1ccc(Cl)cc1Cl)C2
-35.05

Try this molecule next: COCCN(Cc1ccc(F)cc1C#N)CC(F)(F)F
-22.68

* * *

compounds and their reported Percent Effect
# Test system: Wolbachia pipientis
# Experimental protocol: Anti-Wolbachia Cell-Based Screen
# Type: functional
# Parameters: scale not given: in the data most compounds retested in dose-response had high values
# Stated conditions: 5 µM
Hit rate of the full screen: of about 48,000 compounds, about 13,000 (27%) showed an effect of 50% or more. This is one part of the list.
Numbers only here, please. The scale is %.

O=C(O)[C@@H]1CN(C2CCCC2)C[C@H]1C1CC1 ... -8.244

Using the record for CN(CC(F)(F)F)C(=O)CNC(=O)N1CCCC(C(F)(F)F)C1 (stereo not given) , report its Percent Effect.
92.98

Try this compound next: Cc1cc(C(=O)N(C)C2CCS(=O)(=O)C2)c2ccc(F)cc2n1 (stereo not given)
-24.13

Try this compound next: COC(=O)c1ccc(CNC(C)c2ccc(S(C)(=O)=O)cc2)cc1 (stereo not given)
-2.189

Try this compound next: Cc1cc(C)n(-c2ccc(N3CCCSCC3)nc2)n1
0.3589

* * *

compounds and their reported Percent Effect
# Test system: Wolbachia pipientis
# Experimental protocol: Anti-Wolbachia Cell-Based Screen
# Format: functional
# Design: scale not given: in the data most compounds retested in dose-response had high values
# Stated conditions: 5 µM
Hit rate of the full screen: of about 48,000 compounds, about 13,000 (27%) showed an effect of 50% or more. Some of the results follow.
Numbers only here, please. The scale is %.

O=C(N1CCCO1)[C@@]12CCO[C@@H]1CCN(Cc1ccc(F)cc1)C2.O=C(O)C(F)(F)F ... 99.96
Cc1cc(N2CCOC(C)(C(=O)N(C)C)C2)ncn1 (stereo not drawn) ... 147.4

Using the record for CCc1[nH]c2c(CNC(=O)C3CCS(=O)(=O)CC3)cc(C)cc2c1C , report its Percent Effect.
-6.161

Try this compound next: Cc1noc(C)c1CNC(=O)NCCOc1ccc(F)cc1F
-6.419

Try this compound next: Cc1cc(C(F)(F)F)nc(CNC(=O)CCC2CCCN(C)C2)n1 (stereo not drawn)
9.588

Try this compound next: O=C(N1CCOCC1)[C@@]12CCO[C@@H]1CCN(Cc1ccccc1F)C2.O=C(O)C(F)(F)F
14.16

Try this compound next: O=C(NCc1ccco1)[C@@H]1COC[C@H]2CN(c3ncc(F)cn3)C[C@H]21.O=C(O)C(F)(F)F
0.4075

Try this compound next: O=C(NCCc1ccncc1)[C@H]1C[C@@H]2CCN(c3nncs3)C[C@H]2O1
96.02

Try this compound next: O=C(O)C(F)(F)F.O=C(c1cscn1)N1CC[C@@H]2[C@@H]1CCN2C1CCOCC1
97.96

Try this compound next: Cc1cccc2c1nc(CCO)n2-c1ccc(NS(C)(=O)=O)nc1
-11.32
